B1: NELF-E aptamer (parent)
chain: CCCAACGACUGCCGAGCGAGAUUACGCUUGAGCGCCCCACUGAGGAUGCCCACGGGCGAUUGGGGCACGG

Variants of: B1
assay name: HiTS-RAP
test settings: with NELF-E (Drosophila)
measured parameter: pKd
API: returns pKd as number; meaning -log10 of concentration in mol/L.

These solved cases illustrate the format of a correct answer.
>  <entry sequence>
CCCAAGGACUGCCGAGCGAGAUUACGCUUGGGCGCCCCACUGAGGAUGCCCACGGGCGAUUGGGGCACGG

>  <recorded value>
8.16

$$$$
>  <entry sequence>
CCCAAGGACUGCCGAGCGAGAUUACGCUUGAGCGCCCCACUGAGGAAGCCCACGGGCGAUUGGGGCACGG

>  <recorded value>
7.98

$$$$
>  <entry sequence>
CCCAACGACUGCCGAGCGAGAUUGCGCUUGAGCGCCCCACUGAGGAUGCCCAUGGGCGAUUGGGGCACGG

>  <recorded value>
8.38

$$$$
>  <entry sequence>
CCCAACGACGGCCGAGCGAGAUUACGCUUGAGCGCCCCACUGAGGAUGCCCACGGGGGAUUGGGGCACGG

>  <recorded value>
8.11

$$$$
>  <entry sequence>
CCCAACGACUGCCGAGCGAGAUUACGCUUGAGCGCGCCACUGAGGAUGCCCACGGGCGAUUGGGGCACGG

>  <recorded value>
8.22

$$$$
>  <entry sequence>
CCCAACGACUGCCGAGCGAGAUUACGCUUGAGCGCCCCACGGAGGAUGCCCACGAGCGAUUGGGGCACGG

>  <recorded value>
8.11

$$$$
>  <entry sequence>
CCCAACGACUGCCGAGCGAGAUUACGCUUGAGCGCCCCUCUGAGGAUGCCCACGGGCGAUUGGGGCGCGG

>  <recorded value>
7.56

$$$$
>  <entry sequence>
CCCGACGACUGCCGAGCGAGAUUACGCUUGGGCGCCCCACUGAGGAUGCCCACGGGCGAUUGGGGCACGG

>  <recorded value>
8.14

$$$$
>  <entry sequence>
CCCAACGUCUGCCGGGCGAGAUUACGCUUGAGCGCCCCACUGAGGAUGCCCACGGGCGAUUGGGGCACGG

>  <recorded value>
8.24

$$$$
>  <entry sequence>
CCCAACGACUGCCUAGCGAGGUUACGCUUGAGCGCCCCACUGAGGAUGCCCACGGGCGAUUGGGGCACGG

>  <recorded value>
8.17

$$$$

Field request: pKd | item: "CCCAACGACUGCCGAGCGAGAUUACGCUUGAGCGCCCCACGGAGGAUGUCCACGGGCGAUUGGGGCACGG" 7.55

Field request: pKd | item: "CCCAACGACUGCCGAGCGAGAUUGCGCUUGAGCGCCCCACUAAGGAUGCCCACGGGCGAUUGGGGCACGG" 7.25

Field request: pKd | item: "CCCAACGACGGCCGAGCGAGAUUACGCUUGAGCGCCCCACUGUGGAUGCCCACGGGCGAUUGGGGCACGG" 7.12

Field request: pKd | item: "CCCAACGACUGCCGAGCGAGAUGACGCUUGAGCGCCCCACUGAGGAUGCCCACGGUCGAUUGGGGCACGG" 8.25

Field request: pKd | item: "CCCAACGACUGCCGAGCGAGAUUACGCUUGAGCGCCCCACUGAGGAUGCCCACGGGCGAUUGGGGCAUGG" 8.34
